# System: HFF
# Method description: Cytotoxicity against HFF after 48 hrs by MTS assay
# Format: cell-based
# Setup conditions: human
Collected CC50 values appear next to each entry.
Assay readout: CC50 (µM)

INSERT INTO results (structure_smiles, unit_abbreviation, quantitative_result) VALUES
  ('CC[C@H]1OC(=O)[C@H](C)[C@@H](O[C@H]2C[C@@](C)(OC)[C@@H](O)[C@H](C)O2)[C@H](C)[C@@H](O[C@@H]2O[C@H](C)C[C@H](N(C)C)[C@H]2O)[C@](C)(O)C[C@@H](C)CN(Cc2ccc(C)cc2)[C@H](C)[C@@H](O)[C@]1(C)O', 'µM', 38),
  ('CCCN1C[C@H](C)C[C@@](C)(O)[C@H](O[C@@H]2O[C@H](C)C[C@H](N(C)C)[C@H]2O)[C@@H](C)[C@H](O[C@H]2C[C@@](C)(OC)[C@@H](O)[C@H](C)O2)[C@@H](C)C(=O)O[C@H](CC)[C@@](C)(O)[C@H](O)[C@H]1C', 'µM', 139);

###

# Tested on: HFF
# Method description: Cytotoxicity against HFF after 48 hrs by MTS assay
# Assay type: cell-based
# Setup conditions: human
Assay readout: CC50 (µM)

INSERT INTO measurements (molecule, assay_readout, unit_abbreviation, quantitative_result) VALUES
  ('CC[C@H]1OC(=O)[C@H](C)[C@@H](O[C@H]2C[C@@](C)(OC)[C@@H](O)[C@H](C)O2)[C@H](C)[C@@H](O[C@@H]2O[C@H](C)C[C@H](N(C)C)[C@H]2O)[C@](C)(O)C[C@@H](C)CN(C)[C@H](C)[C@@H](O)[C@]1(C)O [AZITHROMYCIN]', 'CC50', 'µM', 174),
  ('CCNC(=O)N1C[C@H](C)C[C@@](C)(O)[C@H](O[C@@H]2O[C@H](C)C[C@H](N(C)C)[C@H]2O)[C@@H](C)[C@H](O[C@H]2C[C@@](C)(OC)[C@@H](O)[C@H](C)O2)[C@@H](C)C(=O)O[C@H](CC)[C@@](C)(O)[C@H](O)[C@H]1C', 'CC50', 'µM', 480),
  ('CCCN1C[C@H](C)C[C@@](C)(OC)[C@H](O[C@@H]2O[C@H](C)C[C@H](N(C)C)[C@H]2O)[C@@H](C)[C@H](O[C@H]2C[C@@](C)(OC)[C@@H](O)[C@H](C)O2)[C@@H](C)C(=O)O[C@H](CC)[C@@](C)(O)[C@H](O)[C@H]1C', 'CC50', 'µM', 106),
  ('CCNC(=O)N1C[C@H](C)C[C@@](C)(OC)[C@H](O[C@@H]2O[C@H](C)C[C@H](N(C)C)[C@H]2O)[C@@H](C)[C@H](O[C@H]2C[C@@](C)(OC)[C@@H](O)[C@H](C)O2)[C@@H](C)C(=O)O[C@H](CC)[C@@](C)(O)[C@H](O)[C@H]1C', 'CC50', 'µM', 409);

###

# Tested on: Toxoplasma gondii
# Method description: Antiparasitic activity against yellow fluorescent protein expressing Toxoplasma gondii 2F-1 treated 6 hrs after infection for 42 hrs followed by reinoculated into fresh HFF monolayers measured after 48 hrs
# Format: functional, organism-based
Assay readout: IC50 (µM)

INSERT INTO measurements (structure_smiles, assay_readout, quantitative_result) VALUES
  ('CC[C@H]1OC(=O)[C@H](C)[C@@H](O[C@H]2C[C@@](C)(OC)[C@@H](O)[C@H](C)O2)[C@H](C)[C@@H](O[C@@H]2O[C@H](C)C[C@H](N(C)C)[C@H]2O)[C@](C)(O)C[C@@H](C)CN(CC2CCCCC2)[C@H](C)[C@@H](O)[C@]1(C)O', 'IC50', 0.6),
  ('CC[C@H]1OC(=O)[C@H](C)[C@@H](O[C@H]2C[C@@](C)(OC)[C@@H](O)[C@H](C)O2)[C@H](C)[C@@H](O[C@@H]2O[C@H](C)C[C@H](N(C)C)[C@H]2O)[C@](C)(O)C[C@@H](C)CN(C)[C@H](C)[C@@H](O)[C@]1(C)O', 'IC50', 0.6),
  ('CC[C@H]1OC(=O)[C@H](C)[C@@H](O[C@H]2C[C@@](C)(OC)[C@@H](O)[C@H](C)O2)[C@H](C)[C@@H](O[C@@H]2O[C@H](C)C[C@H](N(C)C)[C@H]2O)[C@](C)(OC)C[C@@H](C)CN(Cc2ccccc2)[C@H](C)[C@@H](O)[C@]1(C)O', 'IC50', 4),
  ('CC[C@H]1OC(=O)[C@H](C)[C@@H](O[C@H]2C[C@@](C)(OC)[C@@H](O)[C@H](C)O2)[C@H](C)[C@@H](O[C@@H]2O[C@H](C)C[C@H](N(C)C)[C@H]2O)[C@](C)(O)C[C@@H](C)CN(Cc2ccc(F)cc2)[C@H](C)[C@@H](O)[C@]1(C)O', 'IC50', 0.7);

###

# Test system: HFF
# Method description: Cytotoxicity against HFF after 48 hrs by MTS assay
# Assay type: cell-based
# Setup conditions: human
Assay readout: CC50 (µM)

INSERT INTO assay_data (structure_smiles, tested_target, quantitative_result) VALUES
  ('C=CCO[C@]1(C)C[C@@H](C)CN(CCC)[C@H](C)[C@@H](O)[C@](C)(O)[C@@H](CC)OC(=O)[C@H](C)[C@@H](O[C@H]2C[C@@](C)(OC)[C@@H](O)[C@H](C)O2)[C@H](C)[C@H]1O[C@@H]1O[C@H](C)C[C@H](N(C)C)[C@H]1O', 'HFF', 42),
  ('CC[C@H]1OC(=O)[C@H](C)[C@@H](O[C@H]2C[C@@](C)(OC)[C@@H](O)[C@H](C)O2)[C@H](C)[C@@H](O[C@@H]2O[C@H](C)C[C@H](N(C)C)[C@H]2O)[C@](C)(O)C[C@@H](C)CN[C@H](C)[C@@H](O)[C@]1(C)O', 'HFF', 386),
  ('CC[C@H]1OC(=O)[C@H](C)[C@@H](O[C@H]2C[C@@](C)(OC)[C@@H](O)[C@H](C)O2)[C@H](C)[C@@H](O[C@@H]2O[C@H](C)C[C@H](N(C)C)[C@H]2O)[C@](C)(O)C[C@@H](C)CN(C(=O)NCc2ccccc2)[C@H](C)[C@@H](O)[C@]1(C)O', 'HFF', 222),
  ('CC[C@H]1OC(=O)[C@H](C)[C@@H](O[C@H]2C[C@@](C)(OC)[C@@H](O)[C@H](C)O2)[C@H](C)[C@@H](O[C@@H]2O[C@H](C)C[C@H](N(C)C)[C@H]2O)[C@](C)(O)C[C@@H](C)CN(Cc2ccc(F)cc2)[C@H](C)[C@@H](O)[C@]1(C)O', 'HFF', 31),
  ('C=CCN1C[C@H](C)C[C@@](C)(O)[C@H](O[C@@H]2O[C@H](C)C[C@H](N(C)C)[C@H]2O)[C@@H](C)[C@H](O[C@H]2C[C@@](C)(OC)[C@@H](O)[C@H](C)O2)[C@@H](C)C(=O)O[C@H](CC)[C@@](C)(O)[C@H](O)[C@H]1C', 'HFF', 103),
  ('CC[C@H]1OC(=O)[C@H](C)[C@@H](O[C@H]2C[C@@](C)(OC)[C@@H](O)[C@H](C)O2)[C@H](C)[C@@H](O[C@@H]2O[C@H](C)C[C@H](N(C)C)[C@H]2O)[C@](C)(O)C[C@@H](C)CN(CCCc2ccccc2)[C@H](C)[C@@H](O)[C@]1(C)O', 'HFF', 33),
  ('CC[C@H]1OC(=O)[C@H](C)[C@@H](O[C@H]2C[C@@](C)(OC)[C@@H](O)[C@H](C)O2)[C@H](C)[C@@H](O[C@@H]2O[C@H](C)C[C@H](N(C)C)[C@H]2O)[C@](C)(O)C[C@@H](C)/C(=N\OC)[C@H](C)[C@@H](O)[C@]1(C)O', 'HFF', 22),
  ('C=CCO[C@]1(C)C[C@@H](C)CN(C(=O)NCc2ccccc2)[C@H](C)[C@@H](O)[C@](C)(O)[C@@H](CC)OC(=O)[C@H](C)[C@@H](O[C@H]2C[C@@](C)(OC)[C@@H](O)[C@H](C)O2)[C@H](C)[C@H]1O[C@@H]1O[C@H](C)C[C@H](N(C)C)[C@H]1O', 'HFF', 28),
  ('CCCO/N=C1\[C@H](C)C[C@@](C)(O)[C@H](O[C@@H]2O[C@H](C)C[C@H](N(C)C)[C@H]2O)[C@@H](C)[C@H](O[C@H]2C[C@@](C)(OC)[C@@H](O)[C@H](C)O2)[C@@H](C)C(=O)O[C@H](CC)[C@@](C)(O)[C@H](O)[C@H]1C', 'HFF', 7),
  ('C=CCN1C[C@H](C)C[C@@](C)(OC)[C@H](O[C@@H]2O[C@H](C)C[C@H](N(C)C)[C@H]2O)[C@@H](C)[C@H](O[C@H]2C[C@@](C)(OC)[C@@H](O)[C@H](C)O2)[C@@H](C)C(=O)O[C@H](CC)[C@@](C)(O)[C@H](O)[C@H]1C', 'HFF', 84),
  ('CC[C@H]1OC(=O)[C@H](C)[C@@H](O[C@H]2C[C@@](C)(OC)[C@@H](O)[C@H](C)O2)[C@H](C)[C@@H](O[C@@H]2O[C@H](C)C[C@H](N(C)C)[C@H]2O)[C@](C)(OC)C[C@@H](C)CN(C(=O)NCc2ccccc2)[C@H](C)[C@@H](O)[C@]1(C)O', 'HFF', 62),
  ('CC[C@H]1OC(=O)[C@H](C)[C@@H](O[C@H]2C[C@@](C)(OC)[C@@H](O)[C@H](C)O2)[C@H](C)[C@@H](O[C@@H]2O[C@H](C)C[C@H](N(C)C)[C@H]2O)[C@](C)(O)C[C@@H](C)CN(CC2CCCCC2)[C@H](C)[C@@H](O)[C@]1(C)O', 'HFF', 36),
  ('C=CCO/N=C1\[C@H](C)C[C@@](C)(O)[C@H](O[C@@H]2O[C@H](C)C[C@H](N(C)C)[C@H]2O)[C@@H](C)[C@H](O[C@H]2C[C@@](C)(OC)[C@@H](O)[C@H](C)O2)[C@@H](C)C(=O)O[C@H](CC)[C@@](C)(O)[C@H](O)[C@H]1C', 'HFF', 16),
  ('CC[C@H]1OC(=O)[C@H](C)[C@@H](O[C@H]2C[C@@](C)(OC)[C@@H](O)[C@H](C)O2)[C@H](C)[C@@H](O[C@@H]2O[C@H](C)C[C@H](N(C)C)[C@H]2O)[C@](C)(O)C[C@@H](C)/C(=N\OCc2ccccc2)[C@H](C)[C@@H](O)[C@]1(C)O', 'HFF', 3),
  ('C=CCO[C@]1(C)C[C@@H](C)CN(Cc2ccccc2)[C@H](C)[C@@H](O)[C@](C)(O)[C@@H](CC)OC(=O)[C@H](C)[C@@H](O[C@H]2C[C@@](C)(OC)[C@@H](O)[C@H](C)O2)[C@H](C)[C@H]1O[C@@H]1O[C@H](C)C[C@H](N(C)C)[C@H]1O', 'HFF', 14);

// provenance: ChEMBL document CHEMBL1772948
